Numbers sourced from PubChem BioAssay (NCI).

- Tested on: KM12 colon
- assayOverview: NCI-60 one-dose screen, 48 h (100 = growth as untreated, 0 = no growth, -100 = all killed)
- conditionInfo: 10 µM
The panel holds about 83,000 compounds, 20% with a hit somewhere; the sample as a whole holds those more often.
readoutLabel: growth (%)
Write it as a number; the unit % goes unstated.

Field request: growth | item: COc1ccc(-c2[nH]ncc2/C=C/c2cc(C(F)(F)F)[nH]c(=O)n2)cc1
103

Field request: growth | item: O=C(Nc1ccc(OCc2nnc(-c3ccccc3)o2)c(F)c1)Nc1ccc(Cl)c(Cl)c1
34.1

Field request: growth | item: COc1ccc(N2CCN(c3nc(-c4ccccc4)c(C#N)c(=O)[nH]3)CC2)cc1
96.8

Field request: growth | item: NC1CCC(Nc2nc(NCc3cc(Cl)ccc3O)c3ncn(C4CCCC4)c3n2)CC1 (configuration not stated)
1.98

Field request: growth | item: CC(C)/C(=N/O)c1ccccc1
117

Field request: growth | item: CCN(Cc1ccccc1)C1CCN(Cc2cc(Br)ccc2O)CC1
51.3

Field request: growth | item: CCOC(=O)c1cc2c(n1Cc1cc(OC)cc(OC)c1)-c1oncc1CC2
19.5

Field request: growth | item: Nc1nc2c(nnn2C2CC(O)C(CO)O2)c(=O)[nH]1 (configuration not stated)
44.7

Field request: growth | item: Cc1noc(C)c1-c1ccc2nc(NC(=O)[C@H]3CCN(C#N)C3)cn2c1
91.3

Field request: growth | item: COC(=O)c1cnc2c(c1)Oc1ccccc1-c1ccnn1-2
109

Field request: growth | item: O=[N+]([O-])C1CC2C=CC1C2 (configuration not stated)
104

Field request: growth | item: O=C(NNc1nc(N2CCCC2)nc(N2CCCC2)n1)c1ccccc1
104

Field request: growth | item: COc1ccc(-c2ccc(-c3ccc(C(=N)N)c(F)c3)s2)cc1
-94.9

Field request: growth | item: COc1ccc(C(=O)/C=C/c2cc(-c3ccc(OC)c(OC)c3)n[nH]2)cc1OC
-74.1

Field request: growth | item: O=C1/C(=C/c2cccs2)CCC/C1=C\c1cccs1
65.6

Field request: growth | item: CNC(=O)c1cc(Oc2ccc(NC(=O)Nc3ccc(Cl)c(OC4CCCCC4)c3)c(F)c2)ccn1
26.2

Field request: growth | item: COC1OC2COC(c3ccccc3)OC2C(=O)C1NC(=O)c1ccccc1 (configuration not stated)
96.7

Field request: growth | item: Cc1nc(N)sc1Sc1nc2ccc(Cl)cc2c(=O)n1-c1ccc(Oc2ccccc2)cc1
79.8

Field request: growth | item: Cc1ccc(-n2c(-c3cc4c([nH]c5ccccc54)c(-c4cccc(O)c4)n3)n[nH]c2=S)cc1
5

Field request: growth | item: O=C(Nc1cccc(C(F)(F)F)c1)C(Cl)Cl
94.8

Field request: growth | item: CN(C)c1ccc2c(c1)OC(N)=C(C#N)C2c1ccc2c(c1)CCCN2C (configuration not stated)
23.1

Field request: growth | item: N#Cc1ncc(-c2cc(F)ccc2F)c(NC2CCCCCC2)n1
36.4

* * *

- System: U251 CNS
- assayOverview: NCI-60 one-dose screen, 48 h
- conditionInfo: 10 µM
- Experimental: Growth inhibition of the U251 human tumor cell line is measured as a screen for anti-cancer activity. Cells are grown in 96 well plates and exposed to the test compound for 48 hours. Compounds are tested at a single concentration, which is 10^-5 M for most compounds. The reported endpoint is percent growth (GI% or GIPRCNT), where numbers from 0 - 100% represent growth inhibition, and numbers from -100% - 0 represent cell death. For example, a value of 40 represents 60% growth inhibition. […]
The panel holds about 83,000 compounds, 20% with a hit somewhere; the sample as a whole holds those more often. Activity calls are given as the source filed them. The calls were made as follows: active = growth percent below 10; inactive = the rest.
Give your call using only these classes: TRUE (active), FALSE (inactive)

Please share the test call associated with O=C(OCC1OC(n2cc(C(F)(F)F)c(=O)[nH]c2=O)CC1OC(=O)c1ccc([N+](=O)[O-])cc1)c1ccc([N+](=O)[O-])cc1 (stereo not drawn) .
FALSE

Please share the test call associated with COc1cc(-c2nc3ccc(C)cc3[nH]2)ccc1OCc1nnc(-c2ccc(CC(C)C)cc2)o1 .
FALSE

Please share the test call associated with Cc1ccc2nc(-c3ccc(OCC(=O)N=Nc4c(O)[nH]c5ccccc45)cc3)[nH]c2c1 .
TRUE

Please share the test call associated with CCCCCC(CCC)COC(=O)c1ccc(OC)cc1 (stereo not drawn) .
FALSE

Please share the test call associated with COc1cc(Nc2ccnc(N3CCN(c4ccnc5cc(Cl)ccc45)CC3)n2)cc(OC)c1 .
FALSE

Please share the test call associated with Fc1cc(-c2ncc(-c3cc(F)c(F)c(F)c3)c(NC3CCCCCC3)n2)cc(F)c1F .
FALSE

Please share the test call associated with CC(=O)[C@H]1CC[C@H]2[C@@H]3CC[C@@H]4CC=C(C=O)C[C@]4(C)[C@H]3CC[C@]12C .
FALSE

Please share the test call associated with Cn1c(=O)c2[nH]c(C(O)c3ccc(Cl)cc3)nc2n(C)c1=O (stereo not drawn) .
FALSE

Please share the test call associated with CCOC(=O)Nc1ccc2c(c1)C(=O)N(CC)c1ccccc1O2 .
FALSE

Please share the test call associated with COc1cc(/C=C2\C(=O)Nc3cc(C)c(O)cc32)cc(OC)c1OC .
FALSE

Please share the test call associated with Cc1ccc(C2C=C(c3ccc(Cl)cc3)N=C3SC=CN32)c(Br)c1 (stereo not drawn) .
FALSE

Please share the test call associated with Cc1nn2c(/C=C3/C(=O)Nc4ccc(Cl)cc43)c(-c3ccccc3)nc2s1 .
FALSE

Please share the test call associated with C[N+]1(CC2CO2)CCCCCC1 (stereo not drawn) .
FALSE

Please share the test call associated with COC(=O)CCCCCCCCC(C)c1ccc(C(C)=O)cc1 (stereo not drawn) .
FALSE

Please share the test call associated with Nc1c(CNCc2nnn(Cc3ccccc3)c2N)nnn1Cc1ccccc1 .
FALSE

Please share the test call associated with Cc1[nH]nc2c(=S)[nH]c(=O)[nH]c12 .
FALSE

Please share the test call associated with COCCOC(=O)NC(=O)Nc1ccc(C(=O)c2ccc(Cl)cc2)cc1 .
FALSE

Please share the test call associated with CC(=O)n1nc(C(=O)OC(C)(C)C)c2cc(F)c(F)cc21 .
FALSE

Please share the test call associated with Nc1nc2c(nnn2C2CC(O)C(CO)O2)c(=O)[nH]1 (stereo not drawn) .
FALSE

Please share the test call associated with c1ccc(OCCC[P+](c2ccccc2)(c2ccccc2)c2ccccc2)cc1 .
TRUE

Please share the test call associated with COc1ccc(Nc2nc(NCc3ccccc3)c3ccccc3n2)cc1 .
FALSE

Please share the test call associated with Cc1nc2scc(-c3ccc(Cl)cc3)n2c(=O)c1CCN1CCOCC1 .
FALSE

Please share the test call associated with CCOC(=O)c1c(Cl)c2c(n1Cc1cccc(OC)c1)-c1oncc1CC2 .
FALSE

* * *

- Test system: NCI-H522 lung
- assayOverview: NCI-60 one-dose screen, 48 h (100 = growth as untreated, 0 = no growth, -100 = all killed)
- conditionInfo: 10 µM
The panel holds about 83,000 compounds, 20% with a hit somewhere; the sample as a whole holds those more often.
Tag: Fulfilled if measured growth is not below 80%, Not fulfilled if it is.

// inclusive: growth at least 80%? input: NC1CCC(Nc2nc(NCc3cc(Cl)ccc3O)c3ncn(C4CCCC4)c3n2)CC1 (stereo not given)
Not fulfilled

// inclusive: growth at least 80%? input: Nc1c(CNCc2nnn(Cc3ccccc3)c2N)nnn1Cc1ccccc1
Fulfilled

// inclusive: growth at least 80%? input: Cc1ccc(-c2cc(C(=O)Nc3ccc(S(=O)(=O)N4CCCCC4)cc3)[nH]n2)c(O)c1
Not fulfilled

// inclusive: growth at least 80%? input: CC(=O)Nc1ccc(Sc2ccc(NC(C)=O)cc2)cc1
Not fulfilled

// inclusive: growth at least 80%? input: CC(=O)[C@H]1CC[C@H]2[C@@H]3CC[C@@H]4CC=C(C=O)C[C@]4(C)[C@H]3CC[C@]12C
Fulfilled

* * *

- System: HCT-116 colon
- assayOverview: NCI-60 one-dose screen, 48 h
- conditionInfo: 10 µM
Compounds without any hit were thinned out: in the full panel of roughly 83,000, 20% have a hit. The source made the active and inactive calls. Rule for the calls: active = growth percent below 10; inactive = the rest.
Give your call using only these classes: active, inactive

Please share the test call associated with Cn1c([N+](=O)[O-])cnc1C=C1C(=O)c2ccccc2C1=O .
inactive

Please share the test call associated with CCC(O)c1ccc(Br)cc1NC(=O)c1cccc(Cl)c1 (stereo unspecified) .
inactive

Please share the test call associated with O=NN(CC(=O)N/N=C/C=C\c1ccccc1)CC(=O)N/N=C/C=C/c1ccccc1 .
inactive

Please share the test call associated with CC(C)c1[nH]nc2c(NCc3ccc(-c4ccccn4)cc3)nc(SCCN(C)C)nc12 .
active

Please share the test call associated with O=C1CC(c2cccc(-c3cccnc3)c2)=Nc2ccc(Br)cc2N1 .
inactive

Please share the test call associated with CCOC(=O)/C(C#N)=C(/C)C1CC1 .
inactive
